biological target: HLA-C*04:01; experiment: thermal melting temperature (Tm) of peptide-HLA complex; higher = more thermostable pHLA complex; conditions: C1R-B*07:02
Record form. Attribute: thermal melting temperature. Fill in for each entry.
One number for each entry, in °C.

Some solved entries appear below for comparison.
{"Residue string": "IYDSVKVYF", "Measurement": 57}
{"Residue string": "IWDVSVNSV", "Measurement": 58.7}
{"Residue string": "AHDVDPIEL", "Measurement": 46.9}

For each entry beneath this line, provide reported thermal melting temperature.
1. FFDSQGQVLL
2. NFDDIKNGL
3. FWDPSVNLF

Output line:
1. 53.6
2. 50.4
3. 52.4
